System: Streptococcus sp.
Test: In vitro antibacterial evaluation: minimum inhibitory concentration (MIC), broth dilution method
Assay type: cell-based
Settings: broth dilution, 5×10^5 CFU/mL, 18 hours at 35° C.
Assign MIC Streptococcus agalactiae (GC 4564) to each entry below.

Look at this compound and give its reported MIC Streptococcus agalactiae (GC 4564). CC(c1ccccc1)C1NC(=O)CNC(=O)C(CO)NC(=O)C(C(O)C2CNC(=N)N2C2OC(CO)C(O)C(O)C2O)NC(=O)C(C(O)C2CNC(=N)N2)NC(=O)C(Cc2ccc(OC3OC(CO)C(OC4OC(CO)C(O)C5OC(c6ccccc6)OC45)C(O)C3O)cc2)NC1=O (single isomer, unassigned) [Example 104a] 0.5 µg/mL

Input CC(c1ccccc1)C1NC(=O)CNC(=O)C(CO)NC(=O)C(C(O)C2CNC(=N)N2C2OC(CO)C(O)C(O)C2O)NC(=O)C(C(O)C2CNC(=N)N2)NC(=O)C(Cc2ccc(OC3OC(CO)C(OC4OC5COC6(OC5C(O)C4O)C4CC5CC(C4)CC6C5)C(O)C3O)cc2)NC1=O (stereo not shown) [Example 105] <0.06 to 0.25 µg/mL

Input CCCCCC1OCC2OC(OC3C(CO)OC(Oc4ccc(CC5NC(=O)C(C(C)c6ccccc6)NC(=O)CNC(=O)C(CO)NC(=O)C(C(O)C6CNC(=N)N6C6OC(CO)C(O)C(O)C6O)NC(=O)C(C(O)C6CNC(=N)N6)NC5=O)cc4)C(O)C3O)C(O)C(O)C2O1 (stereo not shown) [Example 108] <0.5 µg/mL

Input COc1cccc(C2OCC3OC(OC4C(CO)OC(Oc5ccc(CC6NC(=O)C(C(C)c7ccccc7)NC(=O)CNC(=O)C(CO)NC(=O)C(C(O)C7CNC(=N)N7C7OC(CO)C(O)C(O)C7O)NC(=O)C(C(O)C7CNC(=N)N7)NC6=O)cc5)C(O)C4O)C(O)C(O)C3O2)c1 (stereo not shown) [Example 137] 0.5 µg/mL
